Could you please report measured T/C for the items listed next?
Test system: L1210 leukemia ip in BDF1 mice, survival T/C
Assay: NCI In Vivo Anticancer Drug Screen. Data for tumor model L1210 Leukemia (intraperitoneal) in B6D2F1 (BDF1) mice
Settings: endpoint: mean survival time; dose: 400.0 mg/kg/injection; schedule: Q04DX002 (ip); vehicle: Klucel (hydroxypropylcellulose) (HPC); higher = longer survival
Toxic doses and inconclusive results are not listed.

Known T/C results, listed for orientation:
compound=CNC(=O)Nc1ccc(C(=O)O)cc1 experimental_target="L1210 leukemia ip in BDF1 mice, survival T/C" meas_value="95 % of control"
compound=Cc1ccccc1-n1cccc1C(=O)O experimental_target="L1210 leukemia ip in BDF1 mice, survival T/C" meas_value="86 % of control"
compound=Cc1ccc(-n2ccnc2)c(N=Cc2ccc(N(CCCl)CCCl)cc2Cl)c1 experimental_target="L1210 leukemia ip in BDF1 mice, survival T/C" meas_value="102 % of control"
compound=CSc1nc(N)c(N)c(N)n1 experimental_target="L1210 leukemia ip in BDF1 mice, survival T/C" meas_value="103 % of control"
compound="C1=NC(c2ccccc2)=CN(C2CCCC2)C1(c1ccccc1)C1CCCC1 (stereo not given)" experimental_target="L1210 leukemia ip in BDF1 mice, survival T/C" meas_value="109 % of control"

List the reported T/C of each compound below.
1. N/C(=N\[N+](=O)[O-])Nc1ccccn1
2. Cc1ccc(S(=O)(=O)Nc2ccccc2)cc1
3. Cc1ccc(CNC(=O)Nc2cccc(Cl)c2)cc1
4. O=C(O)c1ccc(C(=O)O)o1
5. NNc1cc(Cl)ccc1Cl
6. COc1cc(C=Nc2ccc3c(c2)nc(C)n3C)ccc1N(CCCl)CCCl
7. Cc1c(C)c(C)c(CN2CC(=O)c3ccccc3C2=O)c(C)c1C

**A:**
109 % of control
91 % of control
108 % of control
91 % of control
100 % of control
89 % of control
89 % of control

# batch size: 3; output T/C per entry
1. CCCCCCCCCCCCC(=O)N(CCC)CCC
2. O=[N+]([O-])c1ccc2c(c1)-c1ccccc1C2O (stereo not given)
3. OC(C1COC(CBr)O1)C(O)C1COC(CBr)O1 (stereo not given)

**A:**
1: 102 % of control; 2: 104 % of control; 3: 95 % of control

###

System: L1210 leukemia ip in BDF1 mice, survival T/C
Experiment: NCI In Vivo Anticancer Drug Screen. Data for tumor model L1210 Leukemia (intraperitoneal) in B6D2F1 (BDF1) mice
Conditions: endpoint: mean survival time; dose: 100.0 mg/kg/injection; schedule: Q04DX003 (ip); vehicle: saline; higher = longer survival
Experimental: The antitumor activity of compounds was measured in mice bearing transplantable tumors. Survival or tumor size were measured and the results are expressed as the measurement made in the treated group (T) divided by the measurement made in the vehicle treated control group (C). The tumor model used in this assay is L1210 Leukemia (intraperitoneal) in B6D2F1 (BDF1) mice
Toxic doses and inconclusive results are not listed.
Give T/C for every item shown.

compound=CCOP(=O)(CSCC)OCC meas_value="94 % of control"
compound=CC1(C)CCc2cc3c(O)c(-c4ccccc4)c(=O)oc3cc2O1 meas_value="97 % of control"

Batch request: T/C for each of the following compounds.
1. O=[N+]([O-])c1ccc2[nH]c(=S)[nH]c2c1
2. Cc1nc(N)[nH]c(=O)c1CCCCCN
3. C/C=C\C=N\N(C)C
4. ClC12CCC(Cl)(CC1)C2(Cl)Cl
5. Clc1ccc2c(c1)C(Br)c1cc(Cl)cc(Cl)c1-2 (configuration not stated)
6. COc1cccc(C(=O)NC[n+]2ccccc2)c1

**A:**
1: 98 % of control; 2: 101 % of control; 3: 102 % of control; 4: 98 % of control; 5: 91 % of control; 6: 100 % of control

Please state T/C for every compound in the list that follows.
1. O=C(O)c1ccc(SSc2ccc(C(=O)O)cn2)nc1
2. Nc1ccc(CCc2ccccc2)c(C(=O)O)c1
3. C=C(Cl)CSC(=N)N
4. CC1(C2CC2)NC(=O)NC1=O (configuration not stated)

**A:**
["102 % of control", "110 % of control", "108 % of control", "92 % of control"]

Return reported T/C values for all items listed beneath this line.
1. COC(=O)c1ccc(C(=O)OC)[n+]([O-])c1
2. CC(N)(CCCN)C(=O)O (configuration not stated)
3. N#Cc1cccc(N)c1
4. C[N+](C)(C)CC#N
5. CC(C)(CC(=O)O)c1ccccc1
6. Nc1cc(S(=O)(=O)O)cc2cc(S(=O)(=O)O)c(N=Nc3cc(S(=O)(=O)O)cc4cc(S(=O)(=O)O)cc(O)c34)c(O)c12
7. NC(CSCc1ccc([N+](=O)[O-])cc1)C(=O)O (configuration not stated)

**A:**
["103 % of control", "104 % of control", "100 % of control", "95 % of control", "100 % of control", "96 % of control", "102 % of control"]

Hi team, please reply with T/C for each item in this list.
1. Cc1ccc(Cl)cc1NC(=O)N(C)C1CCCCC1
2. Nc1nc2c(ncn2CCC(N)C(=O)O)c(=O)[nH]1 (configuration not stated)
3. Cc1c(CC[n+]2cccc(C(N)=O)c2)[nH]c(=O)[nH]c1=O
4. CC(O)C(O)C(=O)O (configuration not stated)
5. CCCCCCCCCCCCCCCCCC1=NC(C)CC(C)(C)O1 (configuration not stated)
6. CCOC(=O)C1c2cccc(O)c2C=CN1C(C)=O (configuration not stated)
7. Cc1nc2nc(N)[nH]c(=O)c2[nH]c1=O

**A:**
1: 97 % of control; 2: 104 % of control; 3: 97 % of control; 4: 108 % of control; 5: 86 % of control; 6: 101 % of control; 7: 100 % of control

For every item below, please supply its T/C.
1. CCOC(=O)CP(=O)(OCC)OCC
2. CC(C)(C)C(=O)N/N=C\c1ccc([N+](=O)[O-])s1
3. CCOC(=O)c1cnc(SCC)nc1N

**A:**
["109 % of control", "93 % of control", "101 % of control"]

Report T/C for every entry below.
1. Cc1cc(N)no1
2. CC(=O)OCC1(C[N+](C)(C)C)CC1
3. NC(=O)CCP(=O)(CCC(N)=O)CCC(N)=O

**A:**
1: 108 % of control; 2: 100 % of control; 3: 103 % of control

###

Exercise: state measured T/C for each of the molecules provided.
System: L1210 leukemia ip in BDF1 mice, survival T/C
Assay: NCI In Vivo Anticancer Drug Screen. Data for tumor model L1210 Leukemia (intraperitoneal) in B6D2F1 (BDF1) mice
Conditions: endpoint: mean survival time; dose: 100.0 mg/kg/injection; schedule: Q01DX001 (ip); vehicle: carboxymethylcellulose (CMC); higher = longer survival
Inconclusive results and toxic doses are left out.

molecule="CN(C)c1ncnc2c1ncn2C1CCC(CO)C1 (configuration not stated)" meas_value="105 % of control"
molecule=CCCCOc1c(OC)cc(OC)cc1C(=O)O meas_value="102 % of control"
molecule=C=CCc1ccc(OC(=O)Nc2ccc(S(=O)(=O)CC)cc2)c(OC)c1 meas_value="90 % of control"
molecule="CC(=O)OCC1OC(n2cc(C)c(=O)[nH]c2=O)C(NC(=O)C(Cl)(Cl)Cl)C(OC(C)=O)C1OC(C)=O (configuration not stated)" meas_value="96 % of control"
molecule=O=c1[nH]c2cc(Br)ccc2c2ccccc12 meas_value="95 % of control"
molecule="NCC(O)C(F)(F)C(F)(F)C(F)(F)F (configuration not stated)" meas_value="103 % of control"

Moving on to the next molecule.
**Q:** Which measured T/C value corresponds to COc1ccc(C(=O)CC(=O)c2ccc(OC)cc2)cc1 ?
**A:** 92 % of control

###

Tested on: L1210 leukemia ip in BDF1 mice, survival T/C
Experiment: NCI In Vivo Anticancer Drug Screen. Data for tumor model L1210 Leukemia (intraperitoneal) in B6D2F1 (BDF1) mice
Settings: endpoint: mean survival time; dose: 200.0 mg/kg/injection; schedule: Q04DX003 (ip); vehicle: Klucel (hydroxypropylcellulose) (HPC); higher = longer survival
Toxic doses and inconclusive results are not listed.
For each entry below, report its T/C value.

compound="O=C(CC(c1ccccc1)C(C(CC(=O)c1ccccc1)c1ccccc1)[N+](=O)[O-])c1ccccc1 (stereo not drawn)" experimental_target="L1210 leukemia ip in BDF1 mice, survival T/C" endpoint_name=T/C meas_value="89 % of control"
compound=Cc1ccc(NC(=O)C(Cl)(Cl)Cl)cc1C experimental_target="L1210 leukemia ip in BDF1 mice, survival T/C" endpoint_name=T/C meas_value="101 % of control"
compound="CC1(O)CCC2CC1C2(C)CO (stereo not drawn)" experimental_target="L1210 leukemia ip in BDF1 mice, survival T/C" endpoint_name=T/C meas_value="106 % of control"
compound=CCOC(=O)c1cc(=O)c2c(ccc3ccccc32)[nH]1 experimental_target="L1210 leukemia ip in BDF1 mice, survival T/C" endpoint_name=T/C meas_value="93 % of control"
compound="CCCCCC(C[N+](C)(C)C)C(=O)/C=C/c1ccc(Cl)cc1 (stereo not drawn)" experimental_target="L1210 leukemia ip in BDF1 mice, survival T/C" endpoint_name=T/C meas_value="106 % of control"
compound=Cc1cnc2c(=O)[nH]c(=O)[nH]c2n1 experimental_target="L1210 leukemia ip in BDF1 mice, survival T/C" endpoint_name=T/C meas_value="92 % of control"

// batch mode: one T/C value per listed entry
1. O=[N+]([O-])c1ccc(Oc2cccc(C(F)(F)F)c2)cc1
2. CCCCCCCCCCCC(=O)NC(=S)Nc1ccccc1F

**A:**
["96 % of control", "87 % of control"]
